- System: HT-29
- Protocol: Cytotoxicity against human HT29 cells after 72 hrs by MTT assay
- Type: cell-based
- Condition: HT-29, 72 h
pIC50: −log10 of the molar value.
This listing pairs compounds with measured pIC50.

Some compounds with recorded pIC50:
O=C(NNc1nc2cc(F)ccc2n2cccc12)c1ccccn1 ... 4.77
COc1ccccc1C(=O)NNc1nc2ccccc2n2cccc12 ... < 4.70
O=C(NNc1nc2cc(F)ccc2n2cccc12)c1ccccc1F ... < 4.70
O=C(NNc1nc2ccccc2n2cccc12)c1c[nH]c2ccccc12 ... < 4.70
O=C(NNc1nc2cc(F)ccc2n2cccc12)c1ccco1 ... < 4.70

Kindly consider the entry below.
The recorded pIC50 for O=C(NNc1nc2cccc(F)c2n2cccc12)c1cnccn1 is 6.52

====

- Test system: HCT-116
- Protocol: Cytotoxicity against human HCT116 cells expressing p53 gene after 72 hrs by MTT assay
- Assay type: cell-based
- Condition: HCT-116, 72 h
Listed next: entries and their corresponding IC50.

O=C(NNc1nc2cc(F)ccc2n2cccc12)c1cnccn1 ... 0.6 µM

Bench note, HCT-116: entry O=C(NNc1nc2cc(F)ccc2n2cccc12)c1ccccn1 , its IC50 = > 20 µM

Assay HCT-116, sample O=C(NNc1nc2cc(F)ccc2n2cccc12)c1cccs1 , IC50 read: > 20 µM

Summary line: O=C(NNc1nc2ccccc2n2cccc12)c1cc2ccccc2[nH]1 , HCT-116, reported IC50 = > 20 µM

IC50 of NCCC(=O)NNc1nc2ccccc2n2cccc12 , assay on HCT-116, is > 20 µM

For O=C(NNc1nc2cc(F)ccc2n2cccc12)c1ccco1 on HCT-116, measured IC50 was > 20 µM

====

As shown below, each of these molecules has a reported pIC50 value.
- System: HT-29
- Protocol: Cytotoxicity against human HT29 cells after 72 hrs by MTT assay
- Format: cell-based
- Condition: HT-29, 72 h
pIC50: −log10 of the molar value.

O=C(NNc1nc2cc(F)ccc2n2cccc12)c1cccnc1 ... < 4.70
O=C(NNc1nc2ccccc2n2cccc12)c1cc2ccccc2[nH]1 ... < 4.70
O=C(NNc1nc2cc(F)ccc2n2cccc12)c1cnc2ccccc2n1 ... 4.89
O=C(NNc1nc2cc(F)ccc2n2cccc12)c1cccs1 ... < 4.70
NCCC(=O)NNc1nc2ccccc2n2cccc12 ... < 4.70

Recorded pIC50 (molecule O=C(NNc1nc2cc(F)ccc2n2cccc12)c1cnccn1 ): 6.05

In plain terms, O=C(NNc1nc2ccccc2n2cccc12)c1ccc2cc[nH]c2c1 has a documented pIC50 of < 4.70

get_value(item= O=C(NNc1nc2ccccc2n2cccc12)C1CSCN1 (stereo not drawn) , readout=pIC50) returns 4.85

====

- Test system: HCT-116
- Protocol: Cytotoxicity against human HCT116 cells expressing p53 gene after 72 hrs by MTT assay
- Assay type: cell-based
- Condition: HCT-116, 72 h
Readout: IC50

O=C(NNc1nc2cc(F)ccc2n2cccc12)c1ccccc1F ... > 20 µM
O=C(NNc1nc2cc(F)ccc2n2cccc12)c1cnc2ccccc2n1 ... 8 µM
O=C(NNc1nc2cc(F)ccc2n2cccc12)c1cccnc1 ... > 20 µM
O=C(NNc1nc2ccccc2n2cccc12)C1CSCN1 (stereo not drawn) ... 15 µM
O=C(NNc1nc2cccc(F)c2n2cccc12)c1cnccn1 ... 0.4 µM

Summary for this molecule, O=C(NNc1nc2ccccc2n2cccc12)c1ccc2cc[nH]c2c1 : IC50 is > 20 µM

The molecule O=C(NNc1nc2ccccc2n2cccc12)c1c[nH]c2ccccc12 showed IC50 equal to > 20 µM

Per the records, this molecule ( COc1ccccc1C(=O)NNc1nc2ccccc2n2cccc12 ) has IC50 equal to > 20 µM
